Field: IC50. Provide a value for each of the molecules that follow.
Assay: Cytotoxicity against human epidermoid carcinoma KB cells
Assay type: functional, cell-based
Give bare numbers, in µg/mL.

Examples with answers:
{"smilesText": "CC(=O)O[C@H]1C[C@@H]2OC[C@@]2(OC(C)=O)[C@H]2[C@H](OC(=O)c3ccccc3)[C@]3(O)C[C@H](O)C(C)=C([C@@H](O)[C@H](O)[C@]12C)C3(C)C", "IC50 (µg/mL)": 0.08}
{"smilesText": "C=C1[C@@H](OC(=O)/C=C/c2ccccc2)C[C@H](OC(C)=O)[C@@]2(COC(C)=O)[C@@H](OC(C)=O)[C@H](O)[C@]3(O)[C@@]4(C)CO[C@]3(C)C(=O)C[C@H]4[C@@H](OC(C)=O)[C@H]12", "IC50 (µg/mL)": 0.06}

# next molecule below
Need IC50 of C=C1[C@@H](OC(=O)/C=C/c2ccccc2)CC[C@@]2(C)[C@@H](OC(C)=O)[C@H](OC(C)=O)C3=C(C)C(=O)C[C@@](O)([C@@H](OC(C)=O)[C@H]12)C3(C)C , thanks.
6.9

----------
Test system: L1210
Assay: Cytotoxicity against murine leukemia L1210 cells
Assay type: functional, cell-based, Mus musculus
Conditions: Mus musculus, L1210; read-out: IC50
propertyMeasured: IC50 (µg/mL)
Answers are plain numbers, in µg/mL.

{"compound": "CCCCCC(=O)NC(c1ccccc1)[C@@H](O)C(=O)O[C@H]1C[C@@]2(O)[C@@H](OC(=O)c3ccccc3)[C@@H]3[C@]4(OC(C)=O)CO[C@@H]4C[C@H](O)[C@@]3(C)C(=O)[C@H](OC(C)=O)C(=C1C)C2(C)C (stereo partly drawn)", "valueReported": 0.21}

Using the record for C=C1[C@@H](OC(=O)/C=C/c2ccccc2)C[C@H](OC(C)=O)[C@@]2(COC(C)=O)[C@@H](OC(C)=O)[C@H](O)[C@]3(O)[C@@]4(C)CO[C@]3(C)C(=O)C[C@H]4[C@@H](OC(C)=O)[C@H]12 , report its IC50.
1

----------
Please respond with reported IC50 for every item in the list.
Assay: Cytotoxicity against human epidermoid carcinoma KB cells
Type: functional, cell-based

Worked set:
{"compound": "C=C1[C@@H](OC(=O)CC(c2ccccc2)N(C)C)CC[C@@]2(C)[C@@H](OC(C)=O)[C@H](OC(C)=O)C3=C(C)C(=O)C[C@@H]([C@@H](OC(C)=O)[C@H]12)C3(C)C (stereo partly drawn)", "propertyMeasured": "IC50", "valueReported": "> 10 µg/mL"}
{"compound": "C=C1[C@@H](OC(=O)CC(c2ccccc2)N(C)C)CC[C@@]2(C)[C@@H](OC(C)=O)[C@H](OC(C)=O)C3=C(C)C(=O)C[C@@](O)([C@@H](OC(C)=O)[C@H]12)C3(C)C (stereo partly drawn)", "propertyMeasured": "IC50", "valueReported": "> 10 µg/mL"}

Turning to the following compound.
Which IC50 value belongs to C=C1[C@@H](O)C[C@H](OC(C)=O)[C@@]2(C)[C@@H](OC(C)=O)[C@H](OC(=O)c3ccccc3)C3=C(C)[C@@H](OC(C)=O)C[C@@]3(C(C)(C)O)[C@@H](OC(C)=O)[C@H]12 ?
> 10 µg/mL

----------
System: L1210
Assay: Cytotoxicity against murine leukemia L1210 cells
Format: functional, cell-based, Mus musculus
Details: Mus musculus, L1210; read-out: IC50
For each record, write down the corresponding IC50.

{"smilesText": "C=C1[C@@H](O)C[C@H](OC(C)=O)[C@@]2(C)[C@@H](OC(C)=O)[C@H](OC(C)=O)[C@]3(O)[C@@]4(C)CO[C@]3(C)C(=O)C[C@H]4[C@@H](OC(C)=O)[C@H]12", "IC50": "> 10 µg/mL"}

Value sought for every listed compound: IC50.
1. C=C1[C@@H](O)C[C@H](OC(C)=O)[C@@]2(C)[C@@H](OC(C)=O)[C@H](OC(=O)c3ccccc3)C3=C(C)[C@@H](OC(C)=O)C[C@@]3(C(C)(C)O)[C@@H](OC(C)=O)[C@H]12
2. CC(=O)O[C@@H]1C2=C(C)[C@@H](O)C[C@@]2(C(C)(C)O)[C@@H](OC(C)=O)[C@@H]2[C@]3(OC(C)=O)CO[C@@H]3C[C@H](OC(C)=O)[C@@]2(C)[C@H]1OC(C)=O

1: > 10 µg/mL; 2: > 10 µg/mL
